- measured-target: UniProtKB P97639
- test-protocol: Radioligand binding assay at cloned rat MCH1 receptor ([3H] Compound A)
- Design: host or cells: Peak rapid 293 (Peakr293) cells, transient calcium phosphate transfection, membranes
- settings: cloned rat MCH1 receptor, membranes from Peakr293 cells, 0.08 nM [3H] Compound A; read-out: Ki (nM) rMCH1
test-readout: Ki (nM)

Below, 5 compounds whose answers are already recorded.
[
  {
    "compound": "CC(C)C(=O)Nc1cccc(C2CCN(Cc3c(OCC#N)ccc4ccccc34)CC2)c1",
    "unit-info": "nM",
    "Ki": 649
  },
  {
    "compound": "COc1ccc(Oc2cccc(CN3CCC(c4cccc(NC(=O)C(C)C)c4)CC3)c2)cc1",
    "unit-info": "nM",
    "Ki": 43
  },
  {
    "compound": "CC(C)C(=O)Nc1cccc(C2CCN(CC[C@H](NC(=O)c3cccs3)c3ccccc3)CC2)c1",
    "unit-info": "nM",
    "Ki": 37
  },
  {
    "compound": "CC(C)C(=O)Nc1cccc(C2CCN(Cc3ccc4c(c3)Cc3ccccc3-4)CC2)c1",
    "unit-info": "nM",
    "Ki": 37.2
  },
  {
    "compound": "CC(C)C(=O)Nc1cccc(C2CCN(C[C@@H](C)COc3ccc(F)cc3)CC2)c1",
    "unit-info": "nM",
    "Ki": 236
  }
]

[I] CC(C)C(=O)Nc1cccc(C2CCN(CCC/C(=N\Nc3ccccn3)c3ccccc3)CC2)c1
[II] CC(=O)c1ccccc1OC(CCN1CCC(c2cccc(NC(=O)C(C)C)c2)CC1)c1ccc(F)cc1 (stereo not shown)
[III] Cc1onc(-c2ccccc2Cl)c1C(=O)OCCCN1CCC(c2cccc(NC(=O)C(C)C)c2)CC1
*Q* Could you please sort these 3 entries by Ki from high to low? Quick reminder: the answer is the labels in the order asked.
*A* III, II, I

* * *

- measured-target: rat MCH-1 (Rattus norvegicus)
- test-protocol: Radioligand binding assay at cloned rat MCH1 receptor ([3H] Compound A)
- Set-up: host or cells: Peak rapid 293 (Peakr293) cells, transient calcium phosphate transfection, membranes
- settings: cloned rat MCH1 receptor; 0.08 nM [3H] Compound A; Peakr293 cell membranes; read-out: Ki (nM) rMCH1
test-readout: Ki (nM)

[
  {
    "molecule": "CCC(=O)Nc1cccc(C2CCN(CCCCC(=O)c3ccc(C(F)(F)F)cc3)CC2)c1",
    "measured-value": 60.9
  }
]

[P] CC(C)C(=O)Nc1cccc(C2CCN(Cc3c[nH]c4cc(C(F)(F)F)ccc34)CC2)c1
[Q] CC(C)C(=O)Nc1cccc(C2CCN(CCCCNC(=O)c3ccc(Oc4cc(Cl)cc(Cl)c4)o3)CC2)c1
*Q* Kindly identify which of P and Q has the larger recorded Ki value. State your choice using its label.
*A* Q
(Q: 49.7 nM, P: 11.9 nM)

[1] CC(C)C(=O)Nc1cccc(C2CCN(CCCCCC(Oc3cc(C(F)(F)F)ccc3F)c3ccc(Cl)cc3)CC2)c1 (stereo not drawn)
[2] CC(C)C(=O)Nc1cccc(C2CCN(Cc3cccc4c3ccn4-c3cccc(Cl)c3Cl)CC2)c1
[3] CC(C)C(=O)Nc1cccc(C2CCN(CC[C@H](NC(=O)NCc3ccccc3)c3ccccc3)CC2)c1
[4] CC(C)C(=O)Nc1cccc(C2CCN(CCCc3c(-c4ccc([N+](=O)[O-])cc4)n(C)c4ccccc34)CC2)c1
[5] CC(C)C(=O)Nc1cccc(C2CCN(CCCc3cn(C)c4ccccc34)CC2)c1
*Q* Ascending by Ki, please: list the molecules accordingly. Answer by listing the labels in the requested order.
*A* 5, 4, 1, 3, 2
(5: 2.9 nM, 4: 11.1 nM, 1: 17.3 nM, 3: 35.4 nM, 2: 89.8 nM)

* * *

- measured-target: rat MCH-1 (Rattus norvegicus)
- test-protocol: Radioligand binding assay at cloned rat MCH1 receptor ([3H] Compound A)
- Parameters: host or cells: Peak rapid 293 (Peakr293) cells, transient calcium phosphate transfection, membranes
- settings: cloned rat MCH1 receptor, membranes from Peakr293 cells, 0.08 nM [3H] Compound A; read-out: Ki (nM) rMCH1
test-readout: Ki (nM)

Solved cases (5 shown):
[
  {
    "compound": "CC(C)C(=O)Nc1cccc(C2CCN(C[C@H](C)COc3ccc(F)cc3)CC2)c1",
    "unit-info": "nM",
    "Ki": 83.2
  },
  {
    "compound": "COc1ccc(OC(CCN2CCC(c3cccc(NC(=O)C(C)C)c3)CC2)c2ccc(F)cc2)cc1 (stereo not drawn)",
    "unit-info": "nM",
    "Ki": 6.8
  },
  {
    "compound": "CC(C)C(=O)Nc1cccc(C2CCN(CC[C@H](NC(=O)c3cccnc3)c3ccccc3)CC2)c1",
    "unit-info": "nM",
    "Ki": 89.8
  },
  {
    "compound": "CC(C)C(=O)Nc1cccc(C2CCN(CCC(Oc3ccc(F)cc3)c3ccc(F)cc3)CC2)c1 (stereo not drawn)",
    "unit-info": "nM",
    "Ki": 38.7
  },
  {
    "compound": "CC(C)C(=O)Nc1cccc(C2CCN(Cc3ccc(-c4cccs4)s3)CC2)c1",
    "unit-info": "nM",
    "Ki": 97.7
  }
]

[a] CC(=O)c1cccc(OC(CCN2CCC(c3cccc(NC(=O)C(C)C)c3)CC2)c2ccc(F)cc2)c1 (stereo not drawn)
[b] CC(C)C(=O)Nc1cccc(C2CCN(Cc3ccc(-c4csnn4)cc3)CC2)c1
[c] CC(C)C(=O)Nc1cccc(C2CCN(C[C@H](C)COc3ccc(Cl)cc3)CC2)c1
[d] CC(C)C(=O)Nc1cccc(C2CCN(Cc3cc4ccccc4s3)CC2)c1
*Q* Rank descending by Ki. Give the labels in the order specified.
*A* d, b, c, a
(d: 362 nM, b: 156 nM, c: 31.6 nM, a: 11.8 nM)

* * *

- measured-target: rat MCH-1 (Rattus norvegicus)
- test-protocol: Radioligand binding assay at cloned rat MCH1 receptor ([3H] Compound A)
- Design: host or cells: Peak rapid 293 (Peakr293) cells, transient calcium phosphate transfection, membranes
- settings: cloned rat MCH1 receptor; 0.08 nM [3H] Compound A; Peakr293 cell membranes; read-out: Ki (nM) rMCH1
test-readout: Ki (nM)

[a] CSc1ccccc1NC(=O)N[C@@H](CCN1CCC(c2cccc(NC(=O)C(C)C)c2)CC1)c1ccccc1
[b] COc1ccc(OC(CCCCCN2CCC(c3cccc(NC(=O)C(C)C)c3)CC2)c2ccccc2F)cc1 (stereo not shown)
*Q* Input pair: a , b . Output: entry with lower Ki. Reply briefly: the label of your chosen item.
*A* b
(b: 17.3 nM, a: 121 nM)

[P] CC(C)C(=O)Nc1cccc(C2CCN(Cc3ccc(C(=O)c4ccccc4)cc3)CC2)c1
[Q] O=C(CCCCN1CCC(c2cccc(NC(=O)C3CC3)c2)CC1)c1ccccc1F
*Q* Which gives the smaller Ki number: P or Q ? Kindly state the label of the option you pick.
*A* P

* * *

- measured-target: rat MCH-1 (Rattus norvegicus, UniProt P97639)
- Sequence (P97639 whole entry): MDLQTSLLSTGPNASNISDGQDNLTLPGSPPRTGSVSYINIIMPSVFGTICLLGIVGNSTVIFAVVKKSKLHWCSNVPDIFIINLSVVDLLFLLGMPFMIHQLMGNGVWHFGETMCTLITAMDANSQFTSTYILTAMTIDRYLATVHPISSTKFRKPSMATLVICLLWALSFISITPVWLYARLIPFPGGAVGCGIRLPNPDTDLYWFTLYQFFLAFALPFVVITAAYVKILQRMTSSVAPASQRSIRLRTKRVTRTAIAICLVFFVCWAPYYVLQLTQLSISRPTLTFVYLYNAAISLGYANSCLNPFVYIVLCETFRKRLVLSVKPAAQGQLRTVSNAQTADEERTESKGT
- test-protocol: Radioligand binding assay at cloned rat MCH1 receptor ([3H] Compound A)
- Set-up: host or cells: Peak rapid 293 (Peakr293) cells, transient calcium phosphate transfection, membranes
- settings: cloned rat MCH1 receptor; 0.08 nM [3H] Compound A; Peakr293 cell membranes; read-out: Ki (nM) rMCH1
test-readout: Ki (nM)

[A] CC(C)C(=O)Nc1cccc(C2CCN(Cc3ccc4c(ccn4-c4ccc(C(F)(F)F)cc4)c3)CC2)c1
[B] CC(C)C(=O)Nc1cccc(C2CCN(CCCC(=O)c3ccc(C(C)(C)C)cc3)CC2)c1
*Q* Which numeric Ki is bigger, that of A or that of B ? # respond with the chosen item's label
*A* B
(B: 337 nM, A: 43.1 nM)

* * *

- measured-target: rat MCH-1 (Rattus norvegicus)
- test-protocol: Radioligand binding assay at cloned rat MCH1 receptor ([3H] Compound A)
- Parameters: host or cells: Peak rapid 293 (Peakr293) cells, transient calcium phosphate transfection, membranes
- settings: cloned rat MCH1 receptor, membranes from Peakr293 cells, 0.08 nM [3H] Compound A; read-out: Ki (nM) rMCH1
test-readout: Ki (nM)

Known results for molecules:
[
  {
    "molecule": "CC(C)C(=O)Nc1cccc(C2CCN(CCCC(OC(=O)Cc3ccc(F)cc3)c3ccccc3)CC2)c1 (stereo not drawn)",
    "test-readout": "Ki",
    "measured-value": 10.3
  },
  {
    "molecule": "Cc1ccc(C2CCN(Cc3ccc(Oc4ccc(F)c(F)c4)cc3)CC2)cc1NC(=O)C(C)C",
    "test-readout": "Ki",
    "measured-value": 27.4
  },
  {
    "molecule": "CC(C)C(=O)Nc1cccc(C2CCN(CCC(Oc3ccc(Cl)c(Cl)c3)c3ccc(F)cc3)CC2)c1 (stereo not drawn)",
    "test-readout": "Ki",
    "measured-value": 15.9
  }
]

[a] CC(C)C(=O)Nc1cccc(C2CCN(CCC(Oc3ccc(C(F)(F)F)cc3)c3ccc(F)cc3)CC2)c1 (stereo not drawn)
[b] CC(C)C(=O)Nc1cccc(C2CCN(CCNC(=O)C(c3ccccc3)c3ccccc3)CC2)c1
*Q* Sorting ascending by Ki, which comes first: a or b ? Write the label of whichever entry you select.
*A* b
(b: 1.7 nM, a: 25.2 nM)

[A] COc1ccccc1OCCCCN1CCC(c2cccc(NC(=O)C(C)C)c2)CC1
[B] CC(C)C(=O)Nc1cccc(C2CCN(CCc3c(-c4ccccc4)n(C)c4ccccc34)CC2)c1
*Q* From the recorded data, which exceeds the other in Ki: A or B ? Identify your pick by its label.
*A* A
(A: 308 nM, B: 26.3 nM)

[a] CC(C)C(=O)Nc1cccc(C2CCN(CCC(Oc3ccccc3)c3ccc(Br)cc3)CC2)c1 (stereo not drawn)
[b] COc1ccc(OC(CCN2CCC(c3cccc(NC(=O)C(C)C)c3)CC2)c2ccc(OC)cc2)cc1 (stereo not drawn)
*Q* Which has the smaller recorded Ki, a or b ? Answer with the label corresponding to your selection.
*A* a

Entry source: patent US6727264B1
